Biological target: B^0AT2/SLC6A15 (eGFP-hSLC6A15) (Homo sapiens, UniProt Q9H2J7)
Sequence (Q9H2J7 1-730): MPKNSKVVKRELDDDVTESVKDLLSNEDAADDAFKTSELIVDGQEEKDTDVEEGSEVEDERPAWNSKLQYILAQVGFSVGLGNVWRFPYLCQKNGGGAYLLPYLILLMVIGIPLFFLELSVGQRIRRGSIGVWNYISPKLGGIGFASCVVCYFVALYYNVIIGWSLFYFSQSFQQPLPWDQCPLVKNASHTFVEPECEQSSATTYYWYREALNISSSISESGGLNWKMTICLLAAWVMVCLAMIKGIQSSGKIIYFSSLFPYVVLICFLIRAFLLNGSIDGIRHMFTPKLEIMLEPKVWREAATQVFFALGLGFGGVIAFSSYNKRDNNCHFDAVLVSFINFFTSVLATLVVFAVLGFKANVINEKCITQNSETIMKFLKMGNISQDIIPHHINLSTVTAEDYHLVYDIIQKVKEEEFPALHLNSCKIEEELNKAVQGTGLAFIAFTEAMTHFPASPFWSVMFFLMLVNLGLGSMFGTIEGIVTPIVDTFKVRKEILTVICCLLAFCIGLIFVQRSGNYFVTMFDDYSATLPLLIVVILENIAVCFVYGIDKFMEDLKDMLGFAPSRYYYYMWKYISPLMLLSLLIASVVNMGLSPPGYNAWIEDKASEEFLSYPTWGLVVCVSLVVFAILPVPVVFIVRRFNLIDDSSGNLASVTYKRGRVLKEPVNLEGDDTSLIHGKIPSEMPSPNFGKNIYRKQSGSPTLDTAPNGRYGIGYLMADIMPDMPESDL
Assay: cell-based
Design: species or system HEK293 eGFP-hSLC6A15
Would you kindly list pIC50 for each of these compounds?
Answers are plain numbers, as −log10 of the molar value.

[[record]]
compound = "COc1cc(C2C3=C(CCCC3=O)Nc3ccccc3N2C(=O)c2ccccc2)ccc1O (stereo not drawn) [10a]"
target_desc = "B^0AT2/SLC6A15 (eGFP-hSLC6A15) (Homo sapiens, UniProt Q9H2J7)"
quantitative_readout = 6.03

[[record]]
compound = "COc1ccc(C2C3=C(CCCC3=O)Nc3ccccc3N2C(=O)c2ccccc2)cc1 (stereo not drawn) [10c]"
target_desc = "B^0AT2/SLC6A15 (eGFP-hSLC6A15) (Homo sapiens, UniProt Q9H2J7)"
quantitative_readout = 6.18

[[record]]
compound = "O=C1CCCC2=C1C(c1ccc(Cl)c(Cl)c1)N(C(=O)c1ccccc1)c1ccccc1N2 (stereo not drawn) [10d]"
target_desc = "B^0AT2/SLC6A15 (eGFP-hSLC6A15) (Homo sapiens, UniProt Q9H2J7)"
quantitative_readout = 5.60

[[record]]
compound = "COc1ccc(C2C3=C(CCCC3=O)Nc3ccccc3N2C(=O)c2ccccc2)cc1OC (stereo not drawn) [10b]"
target_desc = "B^0AT2/SLC6A15 (eGFP-hSLC6A15) (Homo sapiens, UniProt Q9H2J7)"
quantitative_readout = 5.85

[[record]]
compound = "O=C1CCCC2=C1C(c1ccc(F)cc1)N(C(=O)c1ccccc1)c1ccccc1N2 (stereo not drawn) [10e]"
target_desc = "B^0AT2/SLC6A15 (eGFP-hSLC6A15) (Homo sapiens, UniProt Q9H2J7)"
quantitative_readout = 5.54


We next turn to a different compound, shown below.
# compound O=C1CCCC2=C1C(c1ccccc1)N(C(=O)c1ccccc1)c1ccccc1N2 (stereo not drawn) [10f] ; its pIC50 = 5.92
